# target.desc: T1, cynomolgus PD-1 (#PD1-C52H5, AcroBiosystems) (cynomolgus monkey, UniProt B0LAJ3 25-170)
# T1 construct: bought; also called cynomolgus monkey PD-1; not shown: the vendor's tag on the recombinant protein (AcroBiosystems #PD1-C52H5)
# test: SPR, PD-1 on captured IgG1
quantity.kind: kon (M⁻¹ s⁻¹)
Report the value in M⁻¹ s⁻¹ with no unit label.

[[record]]
binder = "ICW519 (antibody, human IgG1, V domains shown, human IgG1) VH: VQLVQSGAEVKKPGASVKVSCKASGYTFTNFYIHWVRQAPGQGLEWMGSIYPNYGITAYNQKFQDRVTMTVDTSTSTAYMELRSLRSDDTAVYYCARGYSYAMDYWGQGTTVTVSS VL: DIQMTQSPSSVSASVGDRVTITCSASQGISGDLNWYQQKPGKAPKLLIYHTSQLHSDVPSRFSGSGSGTDFTLTISSLQPEDFATYYCQGYSKDLLTFGGGTKLEIK"
quantity_kind = "kon"
unit_annotation = "M⁻¹ s⁻¹"
reading = 592000


Which measured kon value corresponds to NRT742 (antibody, human IgG1, V domains shown, human IgG1) VH: VQLVQSGAEVKKPGASVKVSCKASGYTFTNFYIHWVRQAPGQGLEWMGSIYPNYGITAYNQKFKDRVTMTVDTSTSTAYMELRSLRSDDTAVYYCARGYSYAMDYWGQGTTVTVSS VL: DIQMTQSPSSVSASVGDRVTITCSASQGISGDLNWYQQKPGKAPKLLIYHASQLHSDVPSRFSGSGSGTDFTLTISSLQPEDFATYYCQGYSKDLLTFGGGTKLEIK ?
549000

Which kon value belongs to XVT458-z2-m6 (antibody, human IgG1, V domains shown, human IgG1; also called anti-PD-1 antibody clone XVT458-z2-m6) VH: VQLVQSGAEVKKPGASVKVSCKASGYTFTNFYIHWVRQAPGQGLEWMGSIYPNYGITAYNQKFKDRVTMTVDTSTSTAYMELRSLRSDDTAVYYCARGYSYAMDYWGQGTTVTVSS VL: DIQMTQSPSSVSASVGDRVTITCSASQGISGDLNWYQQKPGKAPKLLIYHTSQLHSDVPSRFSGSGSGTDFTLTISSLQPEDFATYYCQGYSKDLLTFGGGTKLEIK ?
499000

Param item = QGA408 (antibody, human IgG1, V domains shown, human IgG1) VH: VQLVQSGAEVKKPGASVKVSCKASGYTFTNFYIHWVRQAPGQGLEWMGSIYPNYGITAFNQKFKDRVTMTVDTSTSTAYMELRSLRSDDTAVYYCARGYSYAMDYWGQGTTVTVSS VL: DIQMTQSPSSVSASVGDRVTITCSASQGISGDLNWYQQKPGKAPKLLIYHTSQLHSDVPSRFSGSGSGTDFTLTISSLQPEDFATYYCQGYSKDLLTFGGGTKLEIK ; retrieve measured kon.
555000

Fill blank: measured kon of the binder OKM590 (antibody, human IgG1, V domains shown, human IgG1) VH: VQLVQSGAEVKKPGASVKVSCKASGYTFTNFYIHWVRQAPGQGLEWMGSIYPNYGITAYNQKFKDRVTMTVDTSTSTAYMELRSLRSDDTAVYYCARGYSYAMDVWGQGTTVTVSS VL: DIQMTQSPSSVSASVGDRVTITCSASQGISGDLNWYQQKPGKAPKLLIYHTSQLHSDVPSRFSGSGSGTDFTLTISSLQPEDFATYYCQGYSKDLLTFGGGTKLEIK is ____.
551000
